The reported measurements were obtained from PubChem BioAssay (NCI).

- Tested on: NCI-H460 lung
- assay_protocol: NCI-60 one-dose screen, 48 h (100 = growth as untreated, 0 = no growth, -100 = all killed)
- condition_parameters: 10 µM unless noted
Compounds without any hit were thinned out: in the full panel of roughly 83,000, 20% have a hit.
So basically, if growth comes in under 40% it's MET, and if it's 40% or more it's NOT MET.

compound	assigned_class
c1ccc2c3c([nH]c2c1)C(c1ccc(C2NCCc4c2[nH]c2ccccc42)cc1)NCC3 (centres undefined)	MET
N#Cc1c(-c2ccc(F)cc2)nc(N=Nc2c(O)[nH]c3ccccc23)nc1N1CCOCC1	MET

Ask: is_below(growth, 40%) for Nc1ccccc1NC(=O)c1ccc(CSc2nc(N3CCOCC3)c3cccn3n2)cc1 ?
Result: MET

Ask: Dear colleague, could you confirm whether growth of CCCCc1ccc(N=Nc2ccc(OCC[N+](C)(C)C)cc2)cc1 falls below 40%? Thanks.
Result: MET

Ask: # check: growth < 40% for CCCCc1n(Cc2ccc3ccccc3n2)cc[n+]1Cc1ccc2ccccc2c1
Result: MET

Ask: Record COc1ccccc1C(=O)/C=C/c1cc2cccc(OC)c2[nH]c1=O : is its growth strictly below 40%?
Result: MET
